molecules and their reported IC50
Tested on: HCV replicon
Type: cell-based

| Sample smiles | Obs value |
| --- | --- |
| COCCN(C)CCOc1ccc2c(C#N)c(-c3ccc(NC(=O)NC(C)C)cc3)n(C3CCC3)c2c1 | 0.5 to 2 µM |

Qu. Dear colleague, I am looking for the recorded IC50 of the following molecule: "CCCn1c(-c2ccc(NS(C)(=O)=O)cc2)c(C#N)c2cc(OC)ccc21"
Ans. 0.5 to 2 µM

Qu. Now the same for "CCn1c(-c2ccc(NC(=O)C3CC3)cc2)c(C#N)c2ccc(OCCN3CCOCC3)cc21"
Ans. 0.5 to 2 µM

Qu. Now the same for "CCn1c(-c2ccc(NC(=O)OCC(C)C)cc2)c(C#N)c2ccc(OCCF)cc21"
Ans. < 0.5 µM

Qu. Now the same for "N#Cc1c(-c2ccc(NC(=O)OC3CCC3)cc2)n(C2CCC2)c2cc(OCCCCN3CCCC3)ccc12"
Ans. < 0.5 µM

Qu. Now the same for "CCCCNC(=O)Nc1ccc(-c2c(C#N)c3ccc(OC)cc3n2CC)cc1F"
Ans. 0.5 to 2 µM

Qu. Now the same for "CCn1c(-c2ccc(NC(=O)NC)cc2)c(C#N)c2ccc(OCCCN3CCOCC3)cc21"
Ans. 0.5 to 2 µM

Qu. Now the same for "CC(C)NC(=O)Nc1ccc(-c2c(C#N)c3ccc(OCCCN4CCCC4)cc3n2C2CCC2)cc1"
Ans. < 0.5 µM
